Every entry's value here was drawn from paper PMC13266984.

biological target: UniProtKB P30838; assay: Cellular ALDEFLUOR assay in OE19 cells (preferential ALDH3A1 expression)
Sequence (P30838 whole entry): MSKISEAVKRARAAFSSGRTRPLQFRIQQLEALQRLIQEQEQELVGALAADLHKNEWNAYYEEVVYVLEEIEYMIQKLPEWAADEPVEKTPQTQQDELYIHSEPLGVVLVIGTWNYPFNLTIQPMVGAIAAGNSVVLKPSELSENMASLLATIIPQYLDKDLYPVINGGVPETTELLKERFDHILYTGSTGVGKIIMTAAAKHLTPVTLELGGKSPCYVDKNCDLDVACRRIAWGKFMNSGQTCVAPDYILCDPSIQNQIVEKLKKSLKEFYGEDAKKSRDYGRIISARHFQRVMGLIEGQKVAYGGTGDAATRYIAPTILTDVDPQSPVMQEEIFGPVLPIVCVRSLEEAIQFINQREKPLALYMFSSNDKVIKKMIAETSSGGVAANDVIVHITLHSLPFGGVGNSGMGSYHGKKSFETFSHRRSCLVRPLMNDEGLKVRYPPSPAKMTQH
List of AC50 values.
Number plus unit, in that order.

Worked examples follow.
- O=C(NCc1ccc(SC(F)(F)F)cc1)c1csc(N2CCN(c3cccc(C(F)(F)F)c3)CC2)n1: 3050 nM
- Cc1cccc(CNC(=O)c2csc(N3CCN(c4ccc(N5CCOCC5)cc4)CC3)n2)c1: 3130 nM

q: Entry Cc1ccc(CNC(=O)c2csc(N3CCN(c4cccc(C(F)(F)F)c4)CC3)n2)cc1F : reported AC50 = ?
a: 342 nM

q: Entry O=C(NCc1ccccc1-c1ccc(Cl)cc1Cl)c1csc(N2CCN(c3cccc(C(F)(F)F)c3)CC2)n1 : reported AC50 = ?
a: 11200 nM

q: Entry Cc1ccccc1-c1cccc(CNC(=O)c2csc(N3CCN(c4cccc(C(F)(F)F)c4)CC3)n2)c1 : reported AC50 = ?
a: 91 nM

q: Entry O=C(NCCc1cccc(OCCCc2ccccc2)c1)c1csc(N2CCN(c3cccc(C(F)(F)F)c3)CC2)n1 : reported AC50 = ?
a: 501 nM

q: Entry O=C(NCc1cccc(COc2ccccc2)c1)c1csc(N2CCN(c3cccc(C(F)(F)F)c3)CC2)n1 : reported AC50 = ?
a: 43.1 nM

q: Entry Cc1cccc(CNC(=O)c2csc(N3CCN(c4ccc(F)cc4)CC3)n2)c1 : reported AC50 = ?
a: 880 nM
